- study system: Hexokinase-1 (Homo sapiens, UniProt P19367)
- Sequence (P19367 whole entry): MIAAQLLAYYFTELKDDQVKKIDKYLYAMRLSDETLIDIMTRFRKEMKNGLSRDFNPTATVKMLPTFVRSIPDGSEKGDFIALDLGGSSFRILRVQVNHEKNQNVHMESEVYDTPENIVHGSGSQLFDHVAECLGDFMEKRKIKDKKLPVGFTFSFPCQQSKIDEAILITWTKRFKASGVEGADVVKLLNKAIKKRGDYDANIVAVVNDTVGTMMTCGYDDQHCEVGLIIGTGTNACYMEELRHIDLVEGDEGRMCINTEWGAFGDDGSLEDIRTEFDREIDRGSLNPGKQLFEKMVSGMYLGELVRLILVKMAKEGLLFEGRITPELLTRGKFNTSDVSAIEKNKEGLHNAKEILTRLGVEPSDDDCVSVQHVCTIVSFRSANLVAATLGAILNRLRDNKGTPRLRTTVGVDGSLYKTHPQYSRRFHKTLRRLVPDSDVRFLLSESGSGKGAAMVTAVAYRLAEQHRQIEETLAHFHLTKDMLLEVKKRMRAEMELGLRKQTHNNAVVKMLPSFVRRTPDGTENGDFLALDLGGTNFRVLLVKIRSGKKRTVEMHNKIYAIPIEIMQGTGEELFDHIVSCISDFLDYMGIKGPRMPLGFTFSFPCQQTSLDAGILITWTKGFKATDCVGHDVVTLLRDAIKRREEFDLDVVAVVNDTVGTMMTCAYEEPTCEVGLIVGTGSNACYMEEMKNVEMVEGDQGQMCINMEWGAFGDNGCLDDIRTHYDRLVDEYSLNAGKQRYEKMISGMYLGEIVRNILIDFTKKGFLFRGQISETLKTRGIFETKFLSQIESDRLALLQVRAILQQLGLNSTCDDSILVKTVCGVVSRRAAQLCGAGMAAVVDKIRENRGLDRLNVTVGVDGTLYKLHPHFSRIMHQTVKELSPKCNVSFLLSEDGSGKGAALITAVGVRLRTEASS
- run description: HK1 enzyme activation by HKDC1 hits – biochemical, selectivity assay for HKDC1 activator project, dose response (AID 504762)
- Assay type: functional
Activity calls are given as the source filed them.
Possible outcomes: active, inactive

smi	class
Cc1ccc(C2=NN=C(Nc3ccc(F)cc3)SC2)cc1	active
Cc1onc(-c2ccccc2)c1C(=O)NNC(=S)NC(=O)c1ccc(Br)cc1	inactive
C[N+](C)(CCCCCC[N+](C)(C)CCCN1C(=O)c2cccc3cccc(c23)C1=O)CCCN1C(=O)c2cccc3cccc(c23)C1=O	active
COC(=O)c1c(NC(C)=O)sc(Cc2ccccc2)c1C	inactive

###

- study system: Cytochrome P450 3A4 (Homo sapiens, UniProt P08684);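 further: confirmatory qHTS run detecting inhibitors and substrates of CYP3A4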
- Sequence (P08684 whole entry): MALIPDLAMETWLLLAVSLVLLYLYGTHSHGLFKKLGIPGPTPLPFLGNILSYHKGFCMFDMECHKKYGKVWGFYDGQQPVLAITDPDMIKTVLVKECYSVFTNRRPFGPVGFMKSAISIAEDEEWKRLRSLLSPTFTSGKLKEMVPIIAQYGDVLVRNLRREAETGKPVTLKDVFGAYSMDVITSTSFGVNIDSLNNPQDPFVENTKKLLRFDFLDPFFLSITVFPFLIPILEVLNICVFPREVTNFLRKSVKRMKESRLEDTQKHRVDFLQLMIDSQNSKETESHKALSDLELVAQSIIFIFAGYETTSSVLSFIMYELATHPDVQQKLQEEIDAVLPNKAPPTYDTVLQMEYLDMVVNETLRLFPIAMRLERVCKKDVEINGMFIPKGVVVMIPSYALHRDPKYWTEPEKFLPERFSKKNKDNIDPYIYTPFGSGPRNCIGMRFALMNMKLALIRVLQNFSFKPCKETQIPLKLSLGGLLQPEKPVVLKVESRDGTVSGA
- particulars: Potency
Listing: AC50 of selected compounds

compound	AC50
COc1cc2c(cc1OC)-c1c(OC)c(OC)c(C=O)c3c1[C@H](C2)N(C)CC3	7.94 µM (inconclusive)
CCN(CC)CCCn1c(-c2ccccc2)nc2c(N(CCOC)CCOC)nc(C)nc21	20 µM (inconclusive)
C=C1C(=O)O[C@@H]2C3OC3(C)CC/C=C(\C)CC[C@@H]12 (some centres undefined)	31.6 µM (inconclusive)
COc1ccc(-c2oc3cc(O[C@@H]4OC(CO)C(O)C(O)C4O)c(OC)c(O)c3c(=O)c2OC)cc1O (some centres undefined)	25.1 µM (inconclusive)

###

Listed here: items and their measured IC50.
- study system: Nonstructural protein 1 (Influenza A virus, UniProt Q194T2)
- Sequence (Q194T2 whole entry): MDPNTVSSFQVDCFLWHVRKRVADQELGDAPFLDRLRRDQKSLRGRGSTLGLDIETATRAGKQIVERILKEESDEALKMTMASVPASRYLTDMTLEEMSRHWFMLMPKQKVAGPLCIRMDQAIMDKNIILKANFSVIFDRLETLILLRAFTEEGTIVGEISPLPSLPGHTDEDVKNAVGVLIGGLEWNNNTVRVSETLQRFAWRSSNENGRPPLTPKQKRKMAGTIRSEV
- Type: functional, Influenza A virus (A/California/07/2009(H1N1))
Activity calls are given as the source filed them.

molecule	IC50
CN(C1=C(NC(=O)c2ccc(Cl)cc2)C(=O)c2ccccc2C1=O)c1ccccc1	7.27 µM (active)
Oc1ccccc1C=NCCN1CCN(CCN=Cc2ccccc2O)C1c1ccccc1O (stereo unspecified)	1.75 µM (active)
CN1/C(=C\C(=S)NC(=O)c2ccccc2Cl)C(C)(C)c2ccccc21	29.3 µM (active)
CC1=NN(c2ccccc2)C(=O)/C1=C\c1sccc1C	> 100 µM (active)
O=C(CCS(=O)(=O)c1ccc(F)cc1)Nc1nc(-c2ccccn2)cs1	21.5 µM (active)
C/C(=N\NC(=O)C1CCCN(S(=O)(=O)c2ccccc2)C1)c1ccccn1 (stereo unspecified)	22.2 µM (active)
CC1Oc2cc3c(-c4c(O)cc(O)c5c(O)c6c(cc45)OC(C)C(C)C6=O)c(O)cc(O)c3c(O)c2C(=O)C1C (stereo unspecified)	29.4 µM (active)
O=S(=O)(O)c1cc(Cl)cc(N=Nc2ccc(O)cc2O)c1O	8.3 µM (active)
COc1ccccc1N1CCN(Cc2ccc(O)c3ncccc23)CC1	5.46 µM (active)
COCCNC(=O)/C(C#N)=C/c1c(N2CCN(c3ccccc3)CC2)nc2c(C)cccn2c1=O	> 100 µM (active)
O=C1NCCCC1C(=O)N/N=C/c1cc([N+](=O)[O-])ccc1O (stereo unspecified)	16.8 µM (active)

###

- study system: Kappa-type opioid receptor (Homo sapiens, UniProt P41145)
- Sequence (P41145 whole entry): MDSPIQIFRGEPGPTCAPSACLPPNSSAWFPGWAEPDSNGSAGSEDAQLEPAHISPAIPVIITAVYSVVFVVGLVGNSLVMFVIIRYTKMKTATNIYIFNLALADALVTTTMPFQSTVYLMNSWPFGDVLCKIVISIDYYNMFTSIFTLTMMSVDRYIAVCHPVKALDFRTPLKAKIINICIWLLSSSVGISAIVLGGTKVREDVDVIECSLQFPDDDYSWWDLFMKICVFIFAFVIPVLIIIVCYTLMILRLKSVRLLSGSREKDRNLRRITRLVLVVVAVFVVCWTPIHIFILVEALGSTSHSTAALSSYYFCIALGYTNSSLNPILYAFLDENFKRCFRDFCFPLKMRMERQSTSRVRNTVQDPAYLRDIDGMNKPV
- Type: functional

smi	uom	EC50
C(=C\c1ccccc1)/CSc1nnc(-c2ccccn2)n1Cc1ccco1	µM	5.22
O=C(c1ccc([N+](=O)[O-])cc1)N(Cc1ccc(Cl)cc1)N1C(=O)CCCC1=O	µM	5.66
